target: GORASP1, Q9BQQ3; experiment: holdup assay; set-up: key: below the threshold = too weak to quantify, mostly under pKd 3.1 to 4; details: plain residues with an end cap or a label only (N-terminal biotin on a linker: ado-ado)
Sequence (Q9BQQ3 1-208): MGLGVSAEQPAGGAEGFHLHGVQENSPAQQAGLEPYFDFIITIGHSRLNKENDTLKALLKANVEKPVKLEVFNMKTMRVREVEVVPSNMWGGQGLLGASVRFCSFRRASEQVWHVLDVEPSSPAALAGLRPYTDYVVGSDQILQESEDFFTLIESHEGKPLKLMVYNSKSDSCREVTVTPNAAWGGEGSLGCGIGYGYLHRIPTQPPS
value type: pKd

GNSVLKSTQF [SLC22A12, Q96S37]
below the threshold
RHGSCVETSL [TMEM151B, Q8IW70]
below the threshold
DDEDRLVIEI [ZNF831, Q5JPB2]
4.12
TPPAAKKSRI [BAZ1A, Q9NRL2]
below the threshold
